These entries and their values trace back to paper PMC6085657.

Listing: pKd of selected molecules
biological target: Hsp70 (Homo sapiens, UniProt P0DMV8); assay: SPR affinity measurement, biotinylated compounds immobilized on a streptavidin chip, Hsp70 analyte; type: binding; conditions: compound immobilized on streptavidin chip, values in parentheses have chi2 > 10
Sequence (P0DMV8 whole entry): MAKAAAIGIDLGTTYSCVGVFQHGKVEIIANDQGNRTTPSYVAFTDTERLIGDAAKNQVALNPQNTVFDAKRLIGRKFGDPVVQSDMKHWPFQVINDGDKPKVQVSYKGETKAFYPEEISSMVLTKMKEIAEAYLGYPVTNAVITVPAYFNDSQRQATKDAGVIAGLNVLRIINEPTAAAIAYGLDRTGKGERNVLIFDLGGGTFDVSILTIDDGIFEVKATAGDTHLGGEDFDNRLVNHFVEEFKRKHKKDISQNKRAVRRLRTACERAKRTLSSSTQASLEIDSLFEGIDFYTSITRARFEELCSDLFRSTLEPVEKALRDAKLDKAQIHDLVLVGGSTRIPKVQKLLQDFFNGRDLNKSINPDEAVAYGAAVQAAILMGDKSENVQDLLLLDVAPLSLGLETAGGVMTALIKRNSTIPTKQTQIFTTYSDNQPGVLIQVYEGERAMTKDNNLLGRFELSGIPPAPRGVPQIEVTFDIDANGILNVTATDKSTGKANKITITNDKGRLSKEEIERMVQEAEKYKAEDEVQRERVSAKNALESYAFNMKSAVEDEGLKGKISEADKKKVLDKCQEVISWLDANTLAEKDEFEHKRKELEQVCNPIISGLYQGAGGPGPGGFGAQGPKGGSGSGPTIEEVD
pKd (log units): -log10 of the concentration in mol/L.

// solved cases for pKd follow
molecule | pKd
NC(=O)C(CCCCNC(=O)C(CNC(=O)c1cccc(-c2cccnc2)c1)NC(=O)c1ccc(NC(=O)COCC(=O)N2CCCN(S(=O)(=O)c3cccc4cnccc34)CC2)cc1)NC(=O)COCCOCCNC(=O)CCCCC1SCC2NC(=O)NC21 (stereo not shown) | 9.42
COc1ccc(C=CC(=O)NCC(NC(=O)c2cccc(NC(=O)CCC(=O)c3ccc(-c4ccccc4)cc3)c2)C(=O)NCCCCC(NC(=O)COCCOCCNC(=O)CCCCC2SCC3NC(=O)NC32)C(N)=O)cc1OC (stereo not shown) | 9.10
CCC(COC(=O)NCCCCC(NC(=O)CC1=C(C)C(=Cc2ccc([S+](C)[O-])cc2)c2ccc(F)cc21)C(=O)NCCCCC(NC(=O)COCCOCCNC(=O)CCCCC1SCC2NC(=O)NC21)C(N)=O)c1ccccc1 (stereo not shown) [Compound 13a] | 8.94

Proceeding to the next molecule to report its pKd.
Field pKd (entry Cc1oncc1C(=O)Nc1ccc(O)c(C(=O)NCC(NC(=O)c2ccc(NC(=O)CCC(=O)c3ccc(-c4ccccc4)cc3)cc2)C(=O)NCCCCC(NC(=O)COCCOCCNC(=O)CCCCC2SCC3NC(=O)NC32)C(N)=O)c1 (stereo not shown) ) reads 8.80

====

Here, each record is paired with measured FU microarray HSP70-GST data.
target: Hsp70-GST (Homo sapiens, UniProt P0DMV8); construct: purchased Signal Chem H34-54G; assay: Microarray-based screen of the focused library against Hsp70-GST (fluorescence, anti-GST DyLight 649); format: binding; details: fluorescence intensity on the microarray, mean of four spots, SD between 5% and 10%; PNA-tagged library member
Sequence (P0DMV8 whole entry): as above

Per the reported Hsp70-GST (Homo sapiens, UniProt P0DMV8) data, COc1ccc(C=CC(=O)NCC(NC(=O)c2cccc(NC(=O)CCC(=O)c3ccc(-c4ccccc4)cc3)c2)C(=O)NCCCCC(NC(=O)COCCOCCNC(=O)CCCCC2SCC3NC(=O)NC32)C(N)=O)cc1OC (stereo not drawn) [Compound 8a] has FU microarray HSP70-GST of 27 982 FU

Form field, FU microarray HSP70-GST with Hsp70-GST (Homo sapiens, UniProt P0DMV8), item COc1ccc(C=CC(=O)NCC(NC(=O)c2cccc(NS(=O)(=O)c3ccc(-c4ccccc4)cc3)c2)C(=O)NCCCCC(NC(=O)COCCOCCNC(=O)CCCCC2SCC3NC(=O)NC32)C(N)=O)cc1OC (stereo not drawn) [Compound 14a] : 28 588 FU

Entry Cc1ccc(C(=O)NCC(NC(=O)c2cccc(NS(=O)(=O)c3ccc(Oc4ccccc4)cc3)c2)C(=O)NCCCCC(NC(=O)COCCOCCNC(=O)CCCCC2SCC3NC(=O)NC32)C(N)=O)cc1[N+](=O)[O-] (stereo not drawn) [Compound 15a] , tested on Hsp70-GST (Homo sapiens, UniProt P0DMV8), has a reported FU microarray HSP70-GST of 28 732 FU

Here NC(=O)C(CCCCNC(=O)C(CCCCNC(=O)c1ccc2[nH]nc(Br)c2c1)NS(=O)(=O)c1ccc(-c2ccccc2)cc1)NC(=O)COCCOCCNC(=O)CCCCC1SCC2NC(=O)NC21 (stereo not drawn) [Compound 7a] was tested on Hsp70-GST (Homo sapiens, UniProt P0DMV8), and its FU microarray HSP70-GST came to 24 143 FU

Reported FU microarray HSP70-GST (Hsp70-GST (Homo sapiens, UniProt P0DMV8)) for entry CSc1nnc(CCCOC(=O)NCC(NC(=O)CC2=C(C)C(=Cc3ccc([S+](C)[O-])cc3)c3ccc(F)cc32)C(=O)NCCCCC(NC(=O)COCCOCCNC(=O)CCCCC2SCC3NC(=O)NC32)C(N)=O)n1-c1ccc(Cl)cc1Cl (stereo not drawn) [Compound 4a] is 28 566 FU

Note to self: FU microarray HSP70-GST of CC(C(=O)Nc1cccc(C(=O)NC(CNC(=O)c2ccc3[nH]nc(Br)c3c2)C(=O)NCCCCC(NC(=O)COCCOCCNC(=O)CCCCC2SCC3NC(=O)NC32)C(N)=O)c1)c1cccc(Oc2ccccc2)c1 (stereo not drawn) [Compound 11a] with Hsp70-GST (Homo sapiens, UniProt P0DMV8) was 27 941 FU

Tested system Hsp70-GST (Homo sapiens, UniProt P0DMV8); FU microarray HSP70-GST recorded for CSc1nnc(CCCOC(=O)NCC(NC(=O)CCC(=O)c2ccc(-c3ccccc3)cc2)C(=O)NCCCCC(NC(=O)COCCOCCNC(=O)CCCCC2SCC3NC(=O)NC32)C(N)=O)n1-c1ccc(Cl)cc1Cl (stereo not drawn) [Compound 12a] was 28 174 FU

Result for CSc1nnc(CCCOC(=O)NCCCCC(NS(=O)(=O)c2ccc(-c3ccccc3)cc2)C(=O)NCCCCC(NC(=O)COCCOCCNC(=O)CCCCC2SCC3NC(=O)NC32)C(N)=O)n1-c1ccc(Cl)cc1Cl (stereo not drawn) [Compound 6a] , tested on Hsp70-GST (Homo sapiens, UniProt P0DMV8), FU microarray HSP70-GST: 28 958 FU

The compound NC(=O)C(CCCCNC(=O)C(CNC(=O)c1cccc(-c2cccnc2)c1)NC(=O)c1ccc(NC(=O)COCC(=O)N2CCCN(S(=O)(=O)c3cccc4cnccc34)CC2)cc1)NC(=O)COCCOCCNC(=O)CCCCC1SCC2NC(=O)NC21 (stereo not drawn) [Compound 5a] , tested on Hsp70-GST (Homo sapiens, UniProt P0DMV8), showed FU microarray HSP70-GST of 28 447 FU
